- System: K4 kissing-loop RNA reporter
- PROTOCOL: apparent KD of K4 kissing-loop reporter; higher = weaker reporter binding
- ASSAY CONDITIONS: Eterna round: R107; input ligand: FMN 200 uM
MEASURE: apparent KD of K4 kissing-loop reporter (µM)
Use µM as the unit, but write only the number.

Q: Request - read-out apparent KD of K4 kissing-loop reporter | tested on K4 kissing-loop RNA reporter | sequence AAGAGCUAGGCGGCCGCCACUAGUUGUGAACACGUACAAGCCAGUGAUGUUGGUAUGAUGGACGGUAGGACCGGGCCUAGCUGAA [Exclusion - Tryptophan B (Freestyle 14)]
Ans: 0.227

Next:
Q: Please provide the recorded apparent KD of K4 kissing-loop reporter for AUAGGAGUGAUGUUCCUUAGUCUCUCCGAUACCAGUAUGGAAACAUACCCUUGGCAGCGGGAGACCGCAGAUUAGGAAACUAGUC [Theophylline A K4 5] , tested on K4 kissing-loop RNA reporter.
Ans: 0.178

Q: GET /values?readout=apparent KD of K4 kissing-loop reporter&system=K4 kissing-loop RNA reporter&item= GCAGACCGCAGUGAUGUUGCGAAAUCGGAAGGAGCGCGUGAAAACGCAGGUAGGUCGCCGACACAGGGAUUAUAACCCUGUUUGC [Arginine A K4 16];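 also: bound reporter read as fluorescence of individual clusters on recovered sequencing chips by microscopy, with normalized cluster intensities fitted with a binding model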
Ans: 0.173
